Sourced from paper PMC8359378

Run Description: plasma pharmacokinetics in first‐in‐human study
Type: in vivo
Protocol Conditions: human, plasma, po, 5 mg, Tmax, median (range), Part A, single dose 5 mg, fasted
Measured Property: Tmax (h)

Given Smiles | Readout Number
Nc1ccc(-c2nc([C@H]3CCc4cc(-c5cc(Cl)ccc5-n5cnnn5)cc(=O)n43)c(F)[nH]2)c(F)n1 | 3.5

====

Run Description: plasma pharmacokinetics in first‐in‐human study
Assay type: in vivo
Protocol Conditions: human, plasma, po, 80 mg, Tmax, median (range), Part A, single dose 80 mg, fed

Compound | Tmax / h
Nc1ccc(-c2nc([C@H]3CCc4cc(-c5cc(Cl)ccc5-n5cnnn5)cc(=O)n43)c(F)[nH]2)c(F)n1 [ONO‐7684] | 7.05
